# Test system: Glycine max (GLXMA)
# Format: in vivo
# particulars: pre-emergence, 80 g/ha, crop plant compatibility, in comparison to untreated controls
experimental_readout: Pre-emergence action against GLXMA in % (%)

COC(=O)[C@H](C)NC(=O)COc1nn(-c2ccnc(Cl)c2)c(-c2ccc(F)nc2)c1Br; 0
C[C@@H](Oc1nn(-c2ccnc(Cl)c2)c(-c2ccc(F)nc2)c1Br)C(=O)O; 20
CCOC(=O)COc1nn(-c2ccccn2)c(-c2cncc(F)c2)c1Cl; 0
COC(=O)CCOC(=O)[C@@H](C)Oc1nn(-c2ccccn2)c(-c2ccc(Cl)nc2)c1Br; 0
CCOC(=O)COc1nn(-c2ncccc2F)c(-c2ccc(F)nc2)c1I; 0
CCOC(=O)COc1nn(-c2ccccn2)c(-c2ccc(F)nc2)c1C1CC1; 0
COC(=O)C1CCN(C(=O)COc2nn(-c3ccccn3)c(-c3ccc(F)nc3)c2Br)C1 (centres unmarked); 20
CCOC(=O)CSc1nn(-c2ccccn2)c(-c2cncc(F)c2)c1Cl; 0
COC(=O)CSc1nn(-c2ccccn2)c(-c2cncc(F)c2)c1Br; 10
C[C@@H](Oc1nn(-c2ccccn2)c(-c2ccc(Cl)nc2)c1Br)C(=O)O; 20
COC(=O)CCOC(=O)COc1nn(-c2ccccn2)c(-c2ccc(F)nc2)c1F; 0
C[C@@H](Oc1nn(-c2ccc(F)cn2)c(-c2cncc(F)c2)c1Br)C(=O)O; 10
O=C(O)COc1nn(-c2ccncc2)c(-c2ccc(F)nc2)c1Br; 20
O=C(CSc1nn(-c2ccccn2)c(-c2cncc(F)c2)c1Br)NC1CC1; 0
COC(=O)CCOC(=O)COc1nn(-c2ccnc(F)c2)c(-c2ccc(F)nc2)c1Br; 0
COC(=O)CN(C)C(=O)COc1nn(-c2ccnc(Cl)c2)c(-c2ccc(F)nc2)c1Br; 0
COC(=O)CCOC(=O)COc1nn(-c2ccccn2)c(-c2cncc(F)c2)c1C1CC1; 20

----------
Listing: Pre-emergence action against MATIN in % of selected molecules
# Tested on: Matricaria inodora (MATIN)
# assay_info: Pre-emergence herbicidal action against MATIN
# Type: in vivo
# particulars: dosage 320 g/ha
experimental_readout: Pre-emergence action against MATIN in % (%)

C[C@@H](Oc1nn(-c2ccccn2)c(-c2cncc(F)c2)c1Cl)C(=O)O; 100
CCOC(=O)COc1nn(-c2nc(F)ccc2F)c(-c2ccc(F)nc2)c1Br; 90
COC(=O)[C@@H](C)Oc1nn(-c2ncccc2Cl)c(-c2ccc(F)nc2)c1Br; 90
COC(=O)CCOC(=O)C(C)Oc1nn(-c2ccccn2)c(-c2ccc(F)nc2)c1C(F)(F)F (stereo not shown); 80

----------
Listing: Post-emergence action against TRZAS in % of selected molecules
# Tested on: Triticum aestivum (TRZAS)
# Format: in vivo
# particulars: crop plant compatibility, 320 g/ha, effect vs untreated controls
experimental_readout: Post-emergence action against TRZAS in % (%)

COCCOC(=O)COc1nn(-c2cccc(C)n2)c(-c2ccc(F)nc2)c1Br; 20
O=C(CSc1nn(-c2ccccn2)c(-c2cncc(F)c2)c1Br)NC1CC1; 10
COC(=O)CCOC(=O)COc1nn(-c2cccc(C)n2)c(-c2ccc(F)nc2)c1Cl; 20
COC(=O)CNC(=O)COc1nn(-c2cccnc2C)c(-c2cncc(F)c2)c1Br; 0
CCOC(=O)COc1nn(-c2ccccn2)c(-c2ccc(F)nc2)c1C1CC1(F)F (stereo not drawn); 0
Cc1cccc(-n2nc(OCC(=O)O)c(Cl)c2-c2ccc(F)nc2)n1; 10
